Readings of HLM % rem for the listed molecules
ASSAY_METHOD_TEXT: Microsomal turnover, human liver microsomes
Format: in vitro ADME
EXPERIMENTAL_SETUP: % remaining after 30 min, 1 μM compound
EXPERIMENTAL_READOUT: HLM % rem (%)

{"MOLECULE": "CN1CCC(Oc2ccc3ncc(-c4cnn(-c5ccc(F)cc5)c4)n3n2)CC1 [Compound 31]", "EXPERIMENTAL_READOUT": "HLM % rem", "UNIT_OF_MEASURE": "%", "TEST_RESULT": 61}
{"MOLECULE": "CN1CCCC(c2ccn3ncc(-c4cnn(-c5ccc(F)cc5)c4)c3n2)C1 (centres unmarked) [Compound 35]", "EXPERIMENTAL_READOUT": "HLM % rem", "UNIT_OF_MEASURE": "%", "TEST_RESULT": 55}
{"MOLECULE": "CN1CCC(Nc2ccc3ncc(-c4cnn(-c5ccc(C#N)cc5)c4)n3n2)CC1 [Compound 36]", "EXPERIMENTAL_READOUT": "HLM % rem", "UNIT_OF_MEASURE": "%", "TEST_RESULT": 79}
{"MOLECULE": "c1ccc(-n2cc(-c3cnc4ccc(NC5CCNCC5)nn34)cn2)cc1 [Compound 12]", "EXPERIMENTAL_READOUT": "HLM % rem", "UNIT_OF_MEASURE": "%", "TEST_RESULT": 81}
{"MOLECULE": "Fc1ccc(-n2cc(-c3cnc4ccc(N[C@H]5CC[C@H](N6CCCC6)CC5)nn34)cn2)cc1 [Compound 30]", "EXPERIMENTAL_READOUT": "HLM % rem", "UNIT_OF_MEASURE": "%", "TEST_RESULT": 42}

Source listed as paper PMC3809513.
